EC50 listing for selected binders.
- Experimental System: T1, human OX40 expressed on the cell surface (human, UniProt P43489 29-277)
- T1 construct: whole, on cells
- T1 sequence (looked up): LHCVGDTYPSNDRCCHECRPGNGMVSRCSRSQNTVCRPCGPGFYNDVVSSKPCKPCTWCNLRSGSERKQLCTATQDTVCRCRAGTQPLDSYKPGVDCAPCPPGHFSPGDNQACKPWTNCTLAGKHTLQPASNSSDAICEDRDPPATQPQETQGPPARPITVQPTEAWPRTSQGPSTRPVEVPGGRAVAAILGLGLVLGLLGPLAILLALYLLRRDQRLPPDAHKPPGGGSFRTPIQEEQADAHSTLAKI
- Protocol Text: FACS on activated human T cells
Return type: number; implicit unit nM.

{"columns": ["Binder", "Value Type", "Measured Result"],
 "data": [
  ["Hu38E11-v2 (antibody, human IgG1, V domains shown) VH: QVQLVQSGAEVKKPGASVKVSCKASGYTFTSYWVDWVRQAPGQGLEWIGNIYPSDSETHYNQKFKDRVTMTVDTSTSTAYMELSSLRSEDSAVYYCARSYGYYGTWFAYWGQGTLVTVSS VL: DIVMTQSPDSLAVSLGERATINCRASESVDSSGNSFMHWYQQKPGQPPKLLIYRASNLESGVPDRFSGSGSGTDFTLTISSLQAEDVAVYYCQQSNEDPWTFGGGTKLEIK", "EC50", 3.35]
]}

Now examine the next entry.
Quick one: EC50 for OX40mAb24 (antibody, V domains shown) VH: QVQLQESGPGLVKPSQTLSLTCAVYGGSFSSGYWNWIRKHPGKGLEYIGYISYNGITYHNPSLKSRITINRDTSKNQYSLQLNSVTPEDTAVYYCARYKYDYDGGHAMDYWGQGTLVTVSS VL: DIQMTQSPSSLSASVGDRVTITCRASQDISNYLNWYQQKPGKAPKLLIYYTSKLHSGVPSRFSGSGSGTDYTLTISSLQPEDFATYYCQQGSALPWTFGQGTKVEIKR ? 6.23
